Recorded values, source ChEMBL document CHEMBL1142972.

# TEST SUMMARY: Displacement of [3H]flumazenil from benzodiazepine receptor in bovine brain membranes
# Type: cell membranes, Bos taurus
pKi: −log10 of the molar value.
PARAMETER: pKi

> print(dat)
                                   compound  observed.measurement
1  CN1C(=O)CN=C(c2ccccc2)c2cc(Cl)ccc21 [DIAZEPAM]                  8.00
2  CCC(C)NC(=O)C(=O)c1c[nH]c2ccc([N+](=O)[O-])cc12 (stereo not drawn)                  6.39
3          CCCCCNC(=O)C(=O)c1c[nH]c2ccccc12                  5.83
4          CC(C)NC(=O)C(=O)c1c[nH]c2ccccc12                  5.57
5      O=C(NCc1ccccc1)C(=O)c1c[nH]c2ccccc12                  6.92
6  CC(C)(C)NC(=O)C(=O)c1c[nH]c2ccc([N+](=O)[O-])cc12                  5.55
7  O=C(NCc1ccc(Br)cc1)C(=O)c1c[nH]c2ccccc12                  7.03
8           CCCCNC(=O)C(=O)c1c[nH]c2ccccc12                  5.43

----------
Measured inhibition values are reported for all entries that follow.
# Organism: Bos taurus
# TEST SUMMARY: Displacement of [3H]flumazenil from benzodiazepine receptor in bovine brain membranes at 10 uM
# Assay type: cell membranes
PARAMETER: inhibition (%)

> print(dat)
                                    compound   parameter  observed.measurement
 1  C[Si](C)(C)CC#Cc1ccc(CNC(=O)C(=O)c2c[nH]c3ccccc23)cc1  inhibition                     3
 2  C#Cc1ccc(CNC(=O)C(=O)c2c[nH]c3ccc([N+](=O)[O-])cc23)cc1  inhibition                    28
 3  O=C(NCc1ccc(Br)cc1)C(=O)c1c[nH]c2ccc([N+](=O)[O-])cc12  inhibition                    31
 4       CC(C)(C)NC(=O)C(=O)c1c[nH]c2ccccc12  inhibition                     7
 5  C[Si](C)(C)CC#Cc1ccc(CNC(=O)C(=O)c2c[nH]c3ccc([N+](=O)[O-])cc23)cc1  inhibition                     0
 6  CC(C)CNC(=O)C(=O)c1c[nH]c2ccc([N+](=O)[O-])cc12  inhibition                     5
 7  CC#Cc1ccc(CNC(=O)C(=O)c2c[nH]c3ccc([N+](=O)[O-])cc23)cc1  inhibition                     0
 8         CC(C)CNC(=O)C(=O)c1c[nH]c2ccccc12  inhibition                    43
 9  CCC(C)NC(=O)C(=O)c1c[nH]c2ccccc12 (stereo not given)  inhibition                    34
10  C[Si](C)(C)C#Cc1ccc(CNC(=O)C(=O)c2c[nH]c3ccc([N+](=O)[O-])cc23)cc1  inhibition                    21
